Parameter IC50, GM-CSF release under IL-36 γ stimulation (NCI/ADR-RES cells): see the listing below.
# tested.target: T1, human IL-36R (human, UniProt Q9HB29 20-575)
# T1 sequence (looked up): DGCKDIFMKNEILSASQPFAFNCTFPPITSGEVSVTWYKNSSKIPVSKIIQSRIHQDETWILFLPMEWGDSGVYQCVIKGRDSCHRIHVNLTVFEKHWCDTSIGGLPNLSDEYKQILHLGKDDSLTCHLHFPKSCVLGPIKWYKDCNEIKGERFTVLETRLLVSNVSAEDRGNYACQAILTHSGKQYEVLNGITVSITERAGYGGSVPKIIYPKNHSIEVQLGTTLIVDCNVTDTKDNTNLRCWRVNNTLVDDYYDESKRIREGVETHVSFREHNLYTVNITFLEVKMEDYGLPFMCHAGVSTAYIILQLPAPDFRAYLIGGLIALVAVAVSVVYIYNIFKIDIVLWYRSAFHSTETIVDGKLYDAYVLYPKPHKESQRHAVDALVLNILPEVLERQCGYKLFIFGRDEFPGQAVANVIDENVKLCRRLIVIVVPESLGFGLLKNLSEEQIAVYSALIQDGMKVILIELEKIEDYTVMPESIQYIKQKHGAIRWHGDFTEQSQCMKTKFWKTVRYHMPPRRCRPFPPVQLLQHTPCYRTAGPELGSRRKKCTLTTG
# method.notes: cell-based or functional assay
readout.name: IC50, GM-CSF release under IL-36 γ stimulation (NCI/ADR-RES cells)

{"binder": "humanized anti-IL-36R antibody 900513 (antibody, V domains shown, IgG1; built from the chimeric expression plasmids (human IgG1 L234A/L235A, human kappa)) VH: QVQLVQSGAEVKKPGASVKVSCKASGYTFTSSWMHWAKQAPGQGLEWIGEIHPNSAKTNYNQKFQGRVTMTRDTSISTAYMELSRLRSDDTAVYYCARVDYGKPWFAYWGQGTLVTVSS VL: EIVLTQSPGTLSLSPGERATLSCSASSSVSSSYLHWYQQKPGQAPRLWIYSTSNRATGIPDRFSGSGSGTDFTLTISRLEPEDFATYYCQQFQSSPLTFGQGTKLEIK", "observed.result": "0.0179 µg/mL"}
{"binder": "humanized anti-IL-36R antibody 900527 (antibody, V domains shown, IgG1 (human IgG1 L234A/L235A, human kappa); also called HB0034) VH: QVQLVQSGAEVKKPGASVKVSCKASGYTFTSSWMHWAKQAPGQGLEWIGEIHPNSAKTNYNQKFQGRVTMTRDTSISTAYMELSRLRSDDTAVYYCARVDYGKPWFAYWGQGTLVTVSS VL: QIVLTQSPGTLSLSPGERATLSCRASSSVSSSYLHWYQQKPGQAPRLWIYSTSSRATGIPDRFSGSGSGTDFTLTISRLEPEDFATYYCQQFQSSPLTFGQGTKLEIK", "observed.result": "0.0198 µg/mL"}
{"binder": "humanized anti-IL-36R antibody 900534 (antibody, V domains shown, IgG1 (human IgG1 L234A/L235A, human kappa)) VH: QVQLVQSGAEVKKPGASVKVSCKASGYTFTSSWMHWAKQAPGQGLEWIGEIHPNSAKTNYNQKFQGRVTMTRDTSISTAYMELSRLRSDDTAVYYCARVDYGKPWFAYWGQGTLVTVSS VL: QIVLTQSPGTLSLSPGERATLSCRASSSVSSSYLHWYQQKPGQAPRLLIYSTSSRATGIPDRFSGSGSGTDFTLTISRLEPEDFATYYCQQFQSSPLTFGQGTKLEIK", "observed.result": "0.021 µg/mL"}
{"binder": "anti-IL-36R chimeric antibody 900497 (antibody, V domains shown, Human-mouse chimera: human IgG1 heavy-chain constant region with L234A and L235A (Eu numbering), human kappa constant region) VH: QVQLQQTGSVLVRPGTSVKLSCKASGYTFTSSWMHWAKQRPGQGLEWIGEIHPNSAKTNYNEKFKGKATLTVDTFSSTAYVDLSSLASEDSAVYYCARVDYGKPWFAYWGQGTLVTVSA VL: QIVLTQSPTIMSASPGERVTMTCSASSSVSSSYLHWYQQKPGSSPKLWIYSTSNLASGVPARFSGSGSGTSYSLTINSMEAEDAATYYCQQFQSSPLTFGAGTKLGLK", "observed.result": "0.0288 µg/mL"}
